The following substances are listed with their measured Percent of maximal response to individual gluten peptides, IP-10 values.
System: gluten-reactive T cells
Experiment: 96-well plate whole blood cytokine release, IP-10 by MAGPIX multiplex bead assay
Assay type: cell-based, human
Conditions: Subject 5; after oral gluten challenge; Max. 9336 pg/mL
Non-standard residues stand in square brackets, D forms with d. pGlu = O=C1CC[C@@H](C(=O)O)N1

>  <substance>
(pE)QPPFSEQEQPVLPQ-amide (N-terminal pyroglutamate; C-terminal amide) [Peptide 13]

>  <result>
6 % of max

$$$$
>  <substance>
(pE)QPFPQPELPYPYPQ-amide ([pGlu]QPFPQPELPYPYPQ-NH2; SMILES CC(C)C[C@H](NC(=O)[C@H](CCC(=O)O)NC(=O)[C@@H]1CCCN1C(=O)[C@H](CCC(N)=O)NC(=O)[C@@H]1CCCN1C(=O)[C@H](Cc1ccccc1)NC(=O)[C@@H]1CCCN1C(=O)[C@H](CCC(N)=O)NC(=O)[C@@H]1CCC(=O)N1)C(=O)N1CCC[C@H]1C(=O)N[C@@H](Cc1ccc(O)cc1)C(=O)N1CCC[C@H]1C(=O)N[C@@H](Cc1ccc(O)cc1)C(=O)N1CCC[C@H]1C(=O)N[C@@H](CCC(N)=O)C(N)=O) [Peptide 16]

>  <result>
35 % of max

$$$$

Ask: Which value of Percent of maximal response to individual gluten peptides, IP-10 has been reported for (pE)QPYPQPELPYPQPQ-amide ([pGlu]QPYPQPELPYPQPQ-NH2; SMILES CC(C)C[C@H](NC(=O)[C@H](CCC(=O)O)NC(=O)[C@@H]1CCCN1C(=O)[C@H](CCC(N)=O)NC(=O)[C@@H]1CCCN1C(=O)[C@H](Cc1ccc(O)cc1)NC(=O)[C@@H]1CCCN1C(=O)[C@H](CCC(N)=O)NC(=O)[C@@H]1CCC(=O)N1)C(=O)N1CCC[C@H]1C(=O)N[C@@H](Cc1ccc(O)cc1)C(=O)N1CCC[C@H]1C(=O)N[C@@H](CCC(N)=O)C(=O)N1CCC[C@H]1C(=O)N[C@@H](CCC(N)=O)C(N)=O) [Peptide 15] in the records?
Result: 33 % of max

----------
Tested on: gluten-reactive T cells
Assay: 96-well plate whole blood cytokine release, IP-10 by MAGPIX multiplex bead assay
Assay type: cell-based, human
Settings: Subject 10; after oral gluten challenge; Max. 8922 pg/mL
Non-standard residues stand in square brackets, D forms with d. pGlu = O=C1CC[C@@H](C(=O)O)N1
The entries below come with measured Percent of maximal response to individual gluten peptides, IP-10 values attached.

These solved cases illustrate the format of a correct answer.
>  <substance>
(pE)PQPYPEQPQPFPQQ-amide ([pGlu]PQPYPEQPQPFPQQ-NH2; SMILES NC(=O)CC[C@H](NC(=O)[C@H](CCC(N)=O)NC(=O)[C@@H]1CCCN1C(=O)[C@H](Cc1ccccc1)NC(=O)[C@@H]1CCCN1C(=O)[C@H](CCC(N)=O)NC(=O)[C@@H]1CCCN1C(=O)[C@H](CCC(N)=O)NC(=O)[C@H](CCC(=O)O)NC(=O)[C@@H]1CCCN1C(=O)[C@H](Cc1ccc(O)cc1)NC(=O)[C@@H]1CCCN1C(=O)[C@H](CCC(N)=O)NC(=O)[C@@H]1CCCN1C(=O)[C@@H]1CCC(=O)N1)C(N)=O) [Peptide 8]

>  <result>
94 % of max

$$$$
>  <substance>
(pE)QPFPQPEQPFSQQ-amide ([pGlu]QPFPQPEQPFSQQ-NH2; SMILES NC(=O)CC[C@H](NC(=O)[C@H](CCC(N)=O)NC(=O)[C@H](CO)NC(=O)[C@H](Cc1ccccc1)NC(=O)[C@@H]1CCCN1C(=O)[C@H](CCC(N)=O)NC(=O)[C@H](CCC(=O)O)NC(=O)[C@@H]1CCCN1C(=O)[C@H](CCC(N)=O)NC(=O)[C@@H]1CCCN1C(=O)[C@H](Cc1ccccc1)NC(=O)[C@@H]1CCCN1C(=O)[C@H](CCC(N)=O)NC(=O)[C@@H]1CCC(=O)N1)C(N)=O) [Peptide 7]

>  <result>
3 % of max

$$$$
>  <substance>
(pE)QPFPEQPEQIIPQQP-amide ([pGlu]QPFPEQPEQIIPQQP-NH2; SMILES CC[C@H](C)[C@H](NC(=O)[C@H](CCC(N)=O)NC(=O)[C@H](CCC(=O)O)NC(=O)[C@@H]1CCCN1C(=O)[C@H](CCC(N)=O)NC(=O)[C@H](CCC(=O)O)NC(=O)[C@@H]1CCCN1C(=O)[C@H](Cc1ccccc1)NC(=O)[C@@H]1CCCN1C(=O)[C@H](CCC(N)=O)NC(=O)[C@@H]1CCC(=O)N1)C(=O)N[C@H](C(=O)N1CCC[C@H]1C(=O)N[C@@H](CCC(N)=O)C(=O)N[C@@H](CCC(N)=O)C(=O)N1CCC[C@H]1C(N)=O)[C@@H](C)CC) [Peptide 12]

>  <result>
0 % of max

$$$$
>  <substance>
(pE)PEQPEQPFPEQPQQ-amide ([pGlu]PEQPEQPFPEQPQQ-NH2; SMILES NC(=O)CC[C@H](NC(=O)[C@H](CCC(N)=O)NC(=O)[C@@H]1CCCN1C(=O)[C@H](CCC(N)=O)NC(=O)[C@H](CCC(=O)O)NC(=O)[C@@H]1CCCN1C(=O)[C@H](Cc1ccccc1)NC(=O)[C@@H]1CCCN1C(=O)[C@H](CCC(N)=O)NC(=O)[C@H](CCC(=O)O)NC(=O)[C@@H]1CCCN1C(=O)[C@H](CCC(N)=O)NC(=O)[C@H](CCC(=O)O)NC(=O)[C@@H]1CCCN1C(=O)[C@@H]1CCC(=O)N1)C(N)=O) [Peptide 11]

>  <result>
0 % of max

$$$$
>  <substance>
(pE)PEQPIPEQPQPYPQQ-amide ([pGlu]PEQPIPEQPQPYPQQ-NH2; SMILES CC[C@H](C)[C@H](NC(=O)[C@@H]1CCCN1C(=O)[C@H](CCC(N)=O)NC(=O)[C@H](CCC(=O)O)NC(=O)[C@@H]1CCCN1C(=O)[C@@H]1CCC(=O)N1)C(=O)N1CCC[C@H]1C(=O)N[C@@H](CCC(=O)O)C(=O)N[C@@H](CCC(N)=O)C(=O)N1CCC[C@H]1C(=O)N[C@@H](CCC(N)=O)C(=O)N1CCC[C@H]1C(=O)N[C@@H](Cc1ccc(O)cc1)C(=O)N1CCC[C@H]1C(=O)N[C@@H](CCC(N)=O)C(=O)N[C@@H](CCC(N)=O)C(N)=O) [Peptide 3]

>  <result>
≥ 100 % of max

$$$$

Ask: Endpoint output: Percent of maximal response to individual gluten peptides, IP-10 of (pE)QPFPQPELPYPYPQ-amide ([pGlu]QPFPQPELPYPYPQ-NH2; SMILES CC(C)C[C@H](NC(=O)[C@H](CCC(=O)O)NC(=O)[C@@H]1CCCN1C(=O)[C@H](CCC(N)=O)NC(=O)[C@@H]1CCCN1C(=O)[C@H](Cc1ccccc1)NC(=O)[C@@H]1CCCN1C(=O)[C@H](CCC(N)=O)NC(=O)[C@@H]1CCC(=O)N1)C(=O)N1CCC[C@H]1C(=O)N[C@@H](Cc1ccc(O)cc1)C(=O)N1CCC[C@H]1C(=O)N[C@@H](Cc1ccc(O)cc1)C(=O)N1CCC[C@H]1C(=O)N[C@@H](CCC(N)=O)C(N)=O) [Peptide 16] . Value?
Result: 11 % of max

Ask: Could you share which Percent of maximal response to individual gluten peptides, IP-10 value was measured for (pE)QPPFSEQEQPVLPQ-amide (N-terminal pyroglutamate; C-terminal amide) [Peptide 13] ?
Result: 0 % of max

Ask: Fill blank: measured Percent of maximal response to individual gluten peptides, IP-10 of the substance (pE)SGEGSFQPSQENPQ-amide ([pGlu]SGEGSFQPSQENPQ-NH2; SMILES NC(=O)CC[C@H](NC(=O)[C@@H]1CCCN1C(=O)[C@H](CC(N)=O)NC(=O)[C@H](CCC(=O)O)NC(=O)[C@H](CCC(N)=O)NC(=O)[C@H](CO)NC(=O)[C@@H]1CCCN1C(=O)[C@H](CCC(N)=O)NC(=O)[C@H](Cc1ccccc1)NC(=O)[C@H](CO)NC(=O)CNC(=O)[C@H](CCC(=O)O)NC(=O)CNC(=O)[C@H](CO)NC(=O)[C@@H]1CCC(=O)N1)C(N)=O) [Peptide 9] is ____.
Result: 0 % of max

Ask: Item (pE)QPYPQPELPYPQPQ-amide ([pGlu]QPYPQPELPYPQPQ-NH2; SMILES CC(C)C[C@H](NC(=O)[C@H](CCC(=O)O)NC(=O)[C@@H]1CCCN1C(=O)[C@H](CCC(N)=O)NC(=O)[C@@H]1CCCN1C(=O)[C@H](Cc1ccc(O)cc1)NC(=O)[C@@H]1CCCN1C(=O)[C@H](CCC(N)=O)NC(=O)[C@@H]1CCC(=O)N1)C(=O)N1CCC[C@H]1C(=O)N[C@@H](Cc1ccc(O)cc1)C(=O)N1CCC[C@H]1C(=O)N[C@@H](CCC(N)=O)C(=O)N1CCC[C@H]1C(=O)N[C@@H](CCC(N)=O)C(N)=O) [Peptide 15] has what recorded Percent of maximal response to individual gluten peptides, IP-10?
Result: 17 % of max
